Reference source: patent US10660967B2

Test system: MCF7 (breast) carcinoma cell line
protocol: Anti-tumor properties, MTT
Assay type: cell-based
condition_set: Homo sapiens; MCF7, 100 μM, 72 h; read-out: Percentage growth of tumor cell lines treated with the tested compounds (±SD)
Listed here: items and their measured activity at 100 µM.
property_label: activity at 100 µM (%)

>>> reading("COc1cc(/C=C/C(=O)CC(=O)/C=C/c2ccc(OC(=O)[C@H](CC(C)C)NC(=O)OCc3ccccc3)c(OC)c2)ccc1OC(=O)[C@H](CC(C)C)NC(=O)OCc1ccccc1 [Cbz-Leu-Cur]")
85.7
>>> reading("COc1cc(/C=C/C(=O)CC(=O)/C=C/c2ccc(OC(=O)[C@H](CC(C)C)NC(=O)OCC3c4ccccc4-c4ccccc43)c(OC)c2)ccc1OC(=O)[C@H](CC(C)C)NC(=O)OCC1c2ccccc2-c2ccccc21 [Fmoc-Leu-Cur]")
83
>>> reading("COc1cc(/C=C/C(=O)CC(=O)/C=C/c2ccc(OC(=O)[C@H](CCSC)NC(=O)OCc3ccccc3)c(OC)c2)ccc1OC(=O)[C@H](CCSC)NC(=O)OCc1ccccc1 [Cbz-Met-Cur]")
71
>>> reading("COc1cc(/C=C/C(=O)CC(=O)/C=C/c2ccc(OC(=O)CNC(=O)OCC3c4ccccc4-c4ccccc43)c(OC)c2)ccc1OC(=O)CNC(=O)OCC1c2ccccc2-c2ccccc21 [Fmoc-Gly-Cur]")
87
